Target: T1, TP-51 peptide (aa 352-414 of SEQ ID NO:1) (human)
T1 construct: Synthetic peptide (Pepscan)
T1 peptide: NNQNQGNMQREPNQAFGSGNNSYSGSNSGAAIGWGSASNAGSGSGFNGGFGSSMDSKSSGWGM
Assay: SPR 8K, mAb captured, TP-51 injected
result.type: koff (s⁻¹)
Field format: number, assumed s⁻¹, no unit text.

Sample answers from the record:
hACI-7069-633B12-Ab1_H15L14 (IgG4) (antibody, V domains shown) VH: QVQLVQSGAEVKKPGASVKVSCKASGFTFTEYSMHWVRQAPGQRLEWMGGINPGNAGTSYNQKFKGRVTITVDTSASTAYMELSSLRSEDTAVYYCARESWGQGTTVTVSS VL: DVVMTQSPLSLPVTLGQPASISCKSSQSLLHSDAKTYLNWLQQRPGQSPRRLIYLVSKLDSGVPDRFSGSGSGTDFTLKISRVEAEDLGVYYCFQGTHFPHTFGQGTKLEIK	0.00094
hACI-7069-633B12-Ab1_H20L19 (IgG4) (antibody, V domains shown) VH: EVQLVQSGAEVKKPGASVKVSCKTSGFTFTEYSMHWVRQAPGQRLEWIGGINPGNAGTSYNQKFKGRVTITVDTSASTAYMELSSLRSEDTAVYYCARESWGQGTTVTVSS VL: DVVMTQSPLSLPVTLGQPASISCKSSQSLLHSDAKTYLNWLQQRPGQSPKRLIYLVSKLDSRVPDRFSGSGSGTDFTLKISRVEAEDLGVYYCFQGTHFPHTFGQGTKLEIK	0.00026

// hACI-7069-633B12-Ab1_H17L14 (IgG4) (antibody, V domains shown) VH: QVQLVQSGAEVKKPGASVKVSCKASGFTFTEYSMHWVKQAPGQRLEWMGGINPGNAGTSYNQKFKGRVTITVDTSASTAYMELSSLRSEDTAVYYCARESWGQGTTVTVSS VL: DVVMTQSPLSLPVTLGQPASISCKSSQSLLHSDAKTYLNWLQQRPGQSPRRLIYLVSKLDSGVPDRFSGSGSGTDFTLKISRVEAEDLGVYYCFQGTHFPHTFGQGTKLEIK : koff value = 0.0012

// hACI-7069-633B12-Ab1_H19L17 (IgG4) (antibody, V domains shown) VH: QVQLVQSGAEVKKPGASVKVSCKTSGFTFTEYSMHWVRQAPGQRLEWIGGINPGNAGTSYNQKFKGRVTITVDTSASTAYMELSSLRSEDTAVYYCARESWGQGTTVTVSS VL: DVVMTQSPLSLPVTLGQPASISCKSSQSLLHSDAKTYLNWLLQRPGQSPRRLIYLVSKLDSGVPDRFSGSGSGTDFTLKISRVEAEDLGVYYCFQGTHFPHTFGQGTKLEIK : koff value = 0.00093

// hACI-7069-633B12-Ab1_H19L18 (IgG4) (antibody, V domains shown) VH: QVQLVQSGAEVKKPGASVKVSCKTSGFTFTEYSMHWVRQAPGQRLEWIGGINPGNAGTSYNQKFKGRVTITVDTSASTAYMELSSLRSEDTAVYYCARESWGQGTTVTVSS VL: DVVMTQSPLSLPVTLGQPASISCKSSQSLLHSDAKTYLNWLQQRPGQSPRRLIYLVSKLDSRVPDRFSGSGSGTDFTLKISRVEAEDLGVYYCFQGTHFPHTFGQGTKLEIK : koff value = 0.00023
